B1: tRNA (parent)
chain: CUCUCGGUAGCCAAGUUGGUUUAAGGCGCAAGACUUUAAUUUAUCACUACGAAAUCUUGAGAUCGGGCGUUCGACUCGCCCCCGGGAGAUUUUUUCCUCGAGCAA

Variants of: B1
Experiment: nonsense suppression (GFP-seq) (ratio to wild type); higher = more function; SUP4oc tRNA, yeast GFP reporter sort-seq
This sample holds only a part of the variants without activity.
quantity_measured: nonsense suppression

A14G U16G C64U | ≤ 0.026
C34G A74U | ≤ 0.026
G28A G84A G86C | ≤ 0.026
U2A C29A C56A A60U | ≤ 0.026
G61A G66C | ≤ 0.026
G66A U76C C81U | ≤ 0.026
C11A A54C G59A U71C C80A G88C | ≤ 0.026
C1G A31U G88A | ≤ 0.026
A14U G86C | ≤ 0.026
C3A G25C U63A | ≤ 0.026
U20A A23G U63C | ≤ 0.026
C1U G18A U21G C27U | ≤ 0.026
U71C C77G G84A | ≤ 0.026
G25A G26C | ≤ 0.026
A13U G59U C80G | ≤ 0.026
U4A U20A | 0.072
G61C C79U | 0.202
U16A G65A G66A | ≤ 0.026
A33G U57A | ≤ 0.026
G61C C75A | 1.06
C29A U55G | ≤ 0.026
U2A A31U A33G U58A | ≤ 0.026
G19A U63C C82A | ≤ 0.026
A13C G61A C75G | 0.761
U17C A62C | 0.734
U16G U21G | 1.1
U16A G59A | 0.32
C29U U57G G85C | ≤ 0.026
G19A A23C G85U | ≤ 0.026
G7A G61A | ≤ 0.026
C5G G66U U71C | ≤ 0.026
A54U G65A | 0.0335
G61C G78A C79U | ≤ 0.026
C1U G69C G73C | ≤ 0.026
A30G U71A | 0.05
G6A A13G | ≤ 0.026
A24U A30C C83A | ≤ 0.026
U63G G73A | 0.189
U22C C56U | 0.0509
C34G C72A | ≤ 0.026
A13U G28C | 0.227
C29U A30U | 0.124
C1U G66A | 0.254
U8C A9U A54U | ≤ 0.026
C12U G78U G84C | ≤ 0.026
G28C A33U C82U A89U | ≤ 0.026
U4G G73C | 0.0291
A30U G69C C72U | ≤ 0.026
A24C U58C | 0.034
C3A A33U | ≤ 0.026
C3U U21C G61A | 0.206
G7C C12A U71G U76C G88A | ≤ 0.026
U2C U20C | 0.0975
C1U C3U C64G G69U | ≤ 0.026
C11U C27G A74G | ≤ 0.026
A30G A74C | 0.0554
C11A U71C | ≤ 0.026
A13U G69C | 0.0304
U55C C79G | 0.035
A9C A60C | 0.0924
A23C A24C A31C | ≤ 0.026
C5A A24C | 0.0269
C81U G88U | 0.0501
U16C A31G U57C | 0.922
A14C C56G C72G G86A | ≤ 0.026
C11U C68A U76C C83G | ≤ 0.026
A23U G28C | ≤ 0.026
U4C U57A | 0.609
C75G G85C | 0.191
A13C C75U | 1.09
U16C C81U | 1.16
C12G U21A G59U | ≤ 0.026
U17A U70G | ≤ 0.026
A14U U71A | ≤ 0.026
C11U A23G A31G U76A | ≤ 0.026
U63G G84C | 0.0283
U21A A54U U76C | 0.751
G69C C77G | ≤ 0.026
U2G G6C G18A G67C G86A A87G | ≤ 0.026
G6C U35G | ≤ 0.026
G28C U55C | 0.183

Hey, just so you know, these numbers are from the RNAGym collection of RNA variant scans (doi:10.1101/gad.245936.114).
